System: SK-MEL-28
assay: NCI tumour cell line growth inhibition, 48 h
Activity calls are given as the source filed them. Cut-off read from the data, not from the text of the source: active = GI50 up to about 1.1 µM and inactive = higher.
measuredParameter: GI50

compound	measuredParameter	result
O=C(COc1ccccc1Cl)N1N=C(c2ccccc2)CC1(O)c1ccccc1 (stereo unspecified)	GI50	17.4 µM (inactive)
FC1=C2CCCCCC2SC1(F)F (stereo unspecified)	GI50	> 100 µM (inactive)
OCCN(CCO)c1ncnc2[nH]cnc12	GI50	> 100 µM (inactive)
Oc1cc(-c2ccccn2)nc2cccc(F)c12	GI50	0.644 µM (active)

Record `NNC(=O)/C(NC(=O)c1ccccc1)=C(\N)c1cccc([N+](=O)[O-])c1` . Reported GI50: > 100 µM (inactive)

Record `Nc1ccc(C2=N/C(=C\c3cccc(N)c3)C(=O)O2)cc1` . Reported GI50: > 100 µM (inactive)

----------
System: KM12
assay: NCI tumour cell line growth inhibition, 48 h
The source made the active and inactive calls. Cut-off read from the data, not from the text of the source: active = GI50 up to about 1.1 µM and inactive = higher.
// allowed return values: active, inactive

Field: outcome | Entry: `Cc1cc(Cl)ccc1NC(=O)C(=O)Cc1occc(=O)c1O`
inactive

Field: outcome | Entry: `COC(=O)[C@@H](Nc1ccccc1)[C@@]1(C(=O)OC)SC12c1ccccc1-c1ccccc12`
inactive

Field: outcome | Entry: `COc1cc(N(C)C)c(OC)cc1/C=C\c1ccnc2ccccc12`
active

Field: outcome | Entry: C/C=C(\C)C(=O)O[C@@H]1CC(C)(C)CC2C3=CCC4[C@]56CC[C@](O)(OC5)C(C)(C)C6CC[C@@]4(C)C3(C)CC[C@]21C(=O)O (stereo partly drawn)
inactive

Field: outcome | Entry: `COC(=O)c1c(O)ccc2c1c1c(n2Cc2ccccc2Cl)C(=O)c2ccccc2C1=O`
inactive

Field: outcome | Entry: Clc1ccc(C(Cc2ccccc2)c2c(Cl)nc(N3CCNCC3)nc2Cl)cc1 (stereo not drawn)
inactive

Field: outcome | Entry: `CCCNC(=O)Nc1c([N+](=O)[O-])cc(C(F)(F)F)cc1[N+](=O)[O-]`
inactive

----------
System: RXF 393
assay: NCI tumour cell line growth inhibition, 48 h
Activity calls are given as the source filed them. No stated cut-off is given here; in the data, active = GI50 up to about 1.1 µM and inactive = higher.
# GI50 listing for each entry below

Record O=C1CSC(c2ccccc2O)N1c1ccc2c(c1)Oc1c(Cl)c3c(c(Cl)c1=N2)Oc1cc(N2C(=O)CSC2c2ccccc2O)ccc1N=3 (stereo not given) . Reported GI50: 17.1 µM (inactive)

Record CCOP(=O)(OCC)C1(O)CC(n2cc(C)c(=O)[nH]c2=O)OC1CO (stereo not given) . Reported GI50: > 100 µM (inactive)

Record `COc1ccc(/C(C=O)=C(\Cl)c2ccc(OC)c(OC)c2)cc1` . Reported GI50: > 100 µM (inactive)

Record `C#CCCCC(=C)C[C@H](OCc1ccccc1)[C@H]1OC(=O)[C@@H]1C` . Reported GI50: > 100 µM (inactive)

Record `NC(=O)c1cc2ccc(O)cc2o/c1=N/NC(=O)c1ccccc1` . Reported GI50: 40.6 µM (inactive)

----------
System: MOLT-4
assay: NCI tumour cell line growth inhibition, 48 h
Calls of active or inactive are those of the source. Cut-off read from the data, not from the text of the source: active = GI50 up to about 1.1 µM and inactive = higher.
# GI50 listing for each entry below

Some molecules with recorded GI50:
molecule	testTarget	GI50
Cc1ccc(N2C(=O)C(=CN)C(=O)N(c3ccc(C)cc3)C2=O)cc1	MOLT-4	> 100 µM (inactive)
CC1(C)Oc2ccc3c(=O)cc(-c4ccc(F)cc4)oc3c2C1C(=O)O (stereo not given)	MOLT-4	> 100 µM (inactive)
C/C(=N/Nc1nc(C)cc(O)n1)C(=O)O	MOLT-4	> 100 µM (inactive)
O=C(NCCCc1cn[nH]c(=O)n1)c1cccc2nc3ccccc3nc12	MOLT-4	33.3 µM (inactive)
COC(=O)CCc1ccc2c(c1)[C@H](C(=O)OC)[C@@H](c1ccc(O)cc1)O2	MOLT-4	35.6 µM (inactive)
Clc1sc(Cl)c2c1[C@H](Cl)C[C@@H]2Cl	MOLT-4	50.2 µM (inactive)
CCOc1ccc2c(c1)[n+]([O-])c(S(=O)(=O)c1ccc(C)cc1)c(N)[n+]2[O-]	MOLT-4	> 100 µM (inactive)
Cc1nc2ccccc2nc1-c1ccc(/N=[N+](\[O-])c2ccc(-c3nc4ccccc4nc3C)cc2)cc1	MOLT-4	> 100 µM (inactive)

Record `Oc1c(Br)cc(CN(Cc2cc(Br)c(O)c(Br)c2)C2CCCCC2)cc1Br` . Reported GI50: > 100 µM (inactive)

Record CC1CCCN1CCCOC(=O)c1ccc(OC2C=CCCC2)cc1 (stereo not given) . Reported GI50: 25.1 µM (inactive)

----------
Tested on: BT-549
assay: NCI tumour cell line growth inhibition, 48 h
Active and inactive are the calls of the source. No stated cut-off is given here; in the data, active = GI50 up to about 1.1 µM and inactive = higher.
# GI50 listing for each entry below

compound	GI50
C1=CN2C[n+]3ccc4ccccc4c3N=C2c2ccccc21	7.98 µM (inactive)
Oc1ccccc1-c1n[nH]c(-c2ccccc2O)n1	> 100 µM (inactive)
Clc1ccc(/C=N/C23CC4CC(CC(C4)C2)C3)cc1Cl	> 10 µM (inactive)
CCCCOC(=O)C(=O)C(CC(C(=O)Cc1ccccc1)c1ccccc1)C(=O)C=C(C)C (stereo not drawn)	> 100 µM (inactive)
CC1=CC(=O)c2ccccc2C1=O [MENADIONE]	12.3 µM (inactive)

Record Cc1ccc([S+]([O-])C[C@@]2(C(F)F)NC(=O)NC2=O)cc1 (stereo partly drawn) . Reported GI50: > 100 µM (inactive)

Record `CO/C=C(/C(=O)OC)[C@@H]1C[C@@H]1c1ccc2ccccc2c1` . Reported GI50: 21.8 µM (inactive)

Record `Oc1c(Br)cc(CN(Cc2cc(Br)c(O)c(Br)c2)C2CCCCC2)cc1Br` . Reported GI50: > 100 µM (inactive)

----------
Test system: SK-MEL-5
assay: NCI tumour cell line growth inhibition, 48 h
The source made the active and inactive calls. Cut-off read from the data, not from the text of the source: active = GI50 up to about 1.1 µM and inactive = higher.
measuredParameter: GI50

Some molecules with recorded GI50:
molecule	result
CN(NC(=O)c1ccc(Cl)cc1)C1=NCCCCN1	> 100 µM (inactive)
CC1CCCN1CCCOC(=O)c1ccc(OC2C=CCCC2)cc1 (stereo unspecified)	19.2 µM (inactive)
O=C1NC(c2ccccc2)C1N(Cc1ccccc1)Cc1ccccc1 (stereo unspecified)	> 100 µM (inactive)
CC(=O)c1cc2ccccc2[n+]([O-])c1N	> 100 µM (inactive)

Per the reported SK-MEL-5 data, CCOP(=O)(OCC)C(C(=O)OC)C(=O)C(=O)Nc1c(C)cc(Br)cc1C (stereo unspecified) has GI50 of > 100 µM (inactive)

Per the reported SK-MEL-5 data, `O=C1/C(=N/c2ccc(Nc3ccccc3)cc2)Oc2ccccc21` has GI50 of 4.68 µM (inactive)

Per the reported SK-MEL-5 data, `CSCC[C@@H]1C(=O)N(C)[C@H](C(C)(C)C)N1C(=O)c1ccccc1` has GI50 of > 100 µM (inactive)

Per the reported SK-MEL-5 data, `CO[C@@]12C[C@@H](C)C3=CCC(C)=C3CC1=C(C)C(=O)O2` has GI50 of > 100 µM (inactive)

Per the reported SK-MEL-5 data, `C/C(=N/Nc1nc(C)cc(O)n1)C(=O)O` has GI50 of > 100 µM (inactive)

Per the reported SK-MEL-5 data, `CN1CC=C(c2c(N)nc(N)[nH]c2=O)CC1` has GI50 of > 100 µM (inactive)

Per the reported SK-MEL-5 data, COc1ccccc1C(O)(c1ccccc1)C(O)(c1ccccc1)c1ccccc1OC (stereo unspecified) has GI50 of > 100 µM (inactive)

----------
Test system: 786-0
assay: NCI tumour cell line growth inhibition, 48 h
The source made the active and inactive calls. Rule as the data show it: active = GI50 up to about 1.1 µM and inactive = higher. Where a SMILES comes first, the peptide text is derived from it. The star is where a group is joined. Boc = CC(C)(C)OC(=O)*; nBu = CCCC*
# GI50 listing for each entry below

compound	GI50
CCCCOc1ccc(CC(NC(=O)OC(C)(C)C)C(=O)NC(C)C(=O)NC(Cc2ccccc2)C(=O)NCC(N)=O)cc1 (configuration not stated) (Boc-Y(nBu)AFG-NH2; configuration not given here)	> 100 µM (inactive)
Cc1cc(C)nc(NS(=O)(=O)c2ccc(Nc3c4ccccc4nc4c(C(=O)Nc5ccc(S(=O)(=O)Nc6cc(C)on6)cc5)cccc34)cc2)n1	18.5 µM (inactive)
COC(=O)C1(C)OC(C)=NC1(C(=O)OC)C(=O)OC (configuration not stated)	> 100 µM (inactive)
Cc1cn(C2CC(N)C(CN)O2)c(=O)[nH]c1=O (configuration not stated)	> 100 µM (inactive)

Record CCOC(=O)C1(Cc2ccc3ccccc3c2)CCCCCN1 (configuration not stated) . Reported GI50: 17.3 µM (inactive)

Record `C(=N\c1ccc(-c2cc(-c3ccccc3)nc3ccc4ccccc4c23)cc1)/c1ccccc1` . Reported GI50: 19.5 µM (inactive)

Record `O=C(O)/C=C/C(=O)Nc1nc[nH]n1` . Reported GI50: > 100 µM (inactive)

Record `c1csc(-c2cc(-c3ccsc3)c(-c3ccsc3)s2)c1` . Reported GI50: > 100 µM (inactive)

Record `Cc1cnc2nc(-c3ccc(Cl)cc3)cc(O)c2c1` . Reported GI50: 6.17 µM (inactive)

Record `Cc1ccc(C(=O)CCl)o1` . Reported GI50: 4.28 µM (inactive)

Record CC1(C)CC2(C)CC1CC2O (configuration not stated) . Reported GI50: > 100 µM (inactive)

Record CC1CN1c1c(C(=O)/C=C/c2ccc(Cl)cc2)c(-c2ccccc2)nn(C)c1=O (configuration not stated) . Reported GI50: 2.81 µM (inactive)

Record `C=CCCC(=O)CC(=O)OCc1ccccc1` . Reported GI50: > 100 µM (inactive)

Record `COc1ccc(-n2c(=O)n(C)c(=O)n2-c2c(C)c(C)c(C)c(C)c2C)cc1` . Reported GI50: > 100 µM (inactive)

Record `CC1(C)CCCOc2cccc(c2)OCCCC(C)(C)C1=O` . Reported GI50: 41.5 µM (inactive)

Record C[N+]1(Cc2ccc(Cl)c(Cl)c2)CCCC1C1CCCN(Cc2ccc(Cl)c(Cl)c2)C1 (configuration not stated) . Reported GI50: > 100 µM (inactive)

Record `Cc1nc2c(nc1C)C(=O)C1=C(C2=O)C2C=CC1CC2` . Reported GI50: 11.9 µM (inactive)

Record `CCN1CCCCCCCCCC(=N/O)/C(=N\O)C1` . Reported GI50: > 100 µM (inactive)

Record COc1cc(C)c2c(c1C=O)Oc1c(c(C)c(O)c3c1C(O)OC3=O)OC2=O (configuration not stated) . Reported GI50: 73.3 µM (inactive)

Record `CC1(C)N=c2c(ncn2CCO)=C(C(N)=O)N1` . Reported GI50: > 100 µM (inactive)

Record `COC(=O)NC1=NNC(=O)c2ccccc2N1` . Reported GI50: > 100 µM (inactive)

Record `C=CCCn1nc(-c2ccccc2)oc1=O` . Reported GI50: > 100 µM (inactive)

Attribution: ChEMBL document CHEMBL1201862
